Target: Pol theta polymerase domain (residues 1819-2590) (Homo sapiens)
Sequence (O75417 1819-2590): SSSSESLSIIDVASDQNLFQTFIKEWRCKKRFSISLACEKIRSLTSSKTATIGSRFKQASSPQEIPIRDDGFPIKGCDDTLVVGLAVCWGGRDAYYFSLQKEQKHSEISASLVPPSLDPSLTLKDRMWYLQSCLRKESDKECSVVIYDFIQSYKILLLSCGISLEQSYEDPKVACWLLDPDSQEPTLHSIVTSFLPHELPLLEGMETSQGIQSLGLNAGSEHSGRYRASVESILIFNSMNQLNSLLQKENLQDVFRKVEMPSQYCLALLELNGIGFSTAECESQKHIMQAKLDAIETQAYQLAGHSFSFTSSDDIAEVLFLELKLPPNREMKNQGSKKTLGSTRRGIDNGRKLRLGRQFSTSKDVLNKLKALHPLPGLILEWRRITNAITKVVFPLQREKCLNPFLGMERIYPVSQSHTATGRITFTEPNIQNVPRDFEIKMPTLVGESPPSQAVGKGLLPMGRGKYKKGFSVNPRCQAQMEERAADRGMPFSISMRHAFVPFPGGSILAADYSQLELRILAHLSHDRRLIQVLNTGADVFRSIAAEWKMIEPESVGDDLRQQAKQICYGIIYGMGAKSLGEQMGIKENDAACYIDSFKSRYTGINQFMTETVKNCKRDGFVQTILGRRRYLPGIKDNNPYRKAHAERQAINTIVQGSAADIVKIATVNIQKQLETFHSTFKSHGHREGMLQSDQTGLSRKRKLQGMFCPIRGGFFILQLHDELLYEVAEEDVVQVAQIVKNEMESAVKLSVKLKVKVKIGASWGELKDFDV
PROPERTY_MEASURED: IC50

Examples from the recorded data:
[[record]]
chem_smiles = "Cc1nc(N[C@@H](CC(N)=O)C(=O)N(C)c2ccc(F)cc2)c(C#N)c(C)c1Cl"
target = "Pol theta polymerase domain (residues 1819-2590) (Homo sapiens)"
result = "200 to 500 nM"

[[record]]
chem_smiles = "CN(C(=O)CNc1nc(C(F)(F)F)cc(C(F)(F)F)c1C#N)c1cccc(C(N)=O)c1"
target = "Pol theta polymerase domain (residues 1819-2590) (Homo sapiens)"
result = "500 to 1000 nM"

[[record]]
chem_smiles = "Cc1nc(NCC(=O)N(C)c2ccc(F)cc2)c(C#N)c(C)c1Cl"
target = "Pol theta polymerase domain (residues 1819-2590) (Homo sapiens)"
result = "< 200 nM"

[[record]]
chem_smiles = "Cc1nc(NCC(=O)N(c2ccc(Cl)cc2)C(C)C)c(C#N)c(C)c1Cl"
target = "Pol theta polymerase domain (residues 1819-2590) (Homo sapiens)"
result = "200 to 500 nM"

[[record]]
chem_smiles = "CN(C(=O)CNc1nc(C(F)(F)F)cc(C(F)(F)F)c1C#N)c1ccc(F)cc1Cl"
target = "Pol theta polymerase domain (residues 1819-2590) (Homo sapiens)"
result = "< 200 nM"


Documented IC50 of CN(C(=O)CNc1cc(Cl)cc(C(F)(F)F)c1)c1ccc(F)cc1 : < 200 nM

Documented IC50 of Cc1nc(NCC(=O)N(C)c2ccc(Br)cc2)c(C#N)c(C)c1Cl : < 200 nM

Documented IC50 of CN(C(=O)CNc1nc(C(F)(F)F)cc(C(F)(F)F)c1C#N)c1cc(Cl)cc(Cl)c1 : < 200 nM
